- procedure.text: Aqueous solubility of Form P-1
- Assay type: physicochemical
- recorded.conditions: aqueous medium, 25 °C, pH 5.7, aqueous buffer
quantity.name: solubility (µg/mL)
Numbers only, in µg/mL.

Enquiry: For COc1cnc(-n2cnc(C)n2)c2[nH]cc(C(=O)C(=O)N3CCN(C(=O)c4ccccc4)CC3)c12 [Form P-1] , what is its reported solubility?
Return: 2.7

###

- procedure.text: Aqueous solubility of Form P-1
- Type: physicochemical
- recorded.conditions: aqueous medium, simulated gastric fluid; pH 1.4, 25° C.
quantity.name: solubility (µg/mL)
Answers are plain numbers, in µg/mL.

Enquiry: For COc1cnc(-n2cnc(C)n2)c2[nH]cc(C(=O)C(=O)N3CCN(C(=O)c4ccccc4)CC3)c12 [Form P-1] , what is its reported solubility?
Return: 12
